# Lookup of reported Peptide binding, MHC Class I Molecule B*0702 keyed by entry
Target: MHC class I allele B*0702 (B7) (Homo sapiens, UniProt P01889)
Experiment: iTopia peptide binding assay, B*0702
Conditions: percent of positive control peptide binding; peptide at 1.11×10^−5M

Below, 4 sequences whose answers are already recorded.
VSSSSPTSS [Peptide 15]
2 % of control
NNSLVSLTY [Peptide 122]
0 % of control
GKDRLTCAY [Peptide 159]
4 % of control
LPSLRQLDL [Peptide 71]
82 % of control

Moving on to the next sequence.
Prompt: Record request: Peptide binding, MHC Class I Molecule B*0702 value, item DCDPILPPS [Peptide 172]
Completion: 0 % of control

Recorded values, source patent US8147838B2.
